Parameter: IC50. Scope: all listed entries.
molecular target: wt human LRRK2, catalytic site (Homo sapiens); construct: wt human LRRK2, catalytic site, catalytic site (ThermoFisher/USA); test: TR-FRET LanthaScreen Tb Kinase Activity Assay, LRRK2 inhibition; conditions: 2 nM wt human LRRK2, 400 nM peptide, 38 μM ATP
Sequence (Q5S007 1879-2138 limits assumed): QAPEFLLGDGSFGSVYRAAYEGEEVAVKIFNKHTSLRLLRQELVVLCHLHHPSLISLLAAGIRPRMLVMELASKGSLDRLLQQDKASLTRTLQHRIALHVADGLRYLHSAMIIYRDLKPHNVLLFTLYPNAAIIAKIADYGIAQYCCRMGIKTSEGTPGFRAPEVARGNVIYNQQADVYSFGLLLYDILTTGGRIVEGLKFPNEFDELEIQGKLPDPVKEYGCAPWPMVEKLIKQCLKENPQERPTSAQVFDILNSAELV
observation type: IC50

> print(dat)
                                    compound  observation.type       result
 1  COC[C@H]1CN(c2cc3c(cn2)NC(c2c(F)cccc2F)=Nc2c(C)n[nH]c2-3)CCO1              IC50  1 to 100 nM
 2  Cc1n[nH]c2c1N=C(c1c(F)cccc1F)Nc1cnc(-c3cnn(CC(F)F)c3)cc1-2              IC50       < 1 nM
 3  Fc1cccc(F)c1C1=Nc2c(Cl)n[nH]c2-c2cc(N3CCOCC3)ncc2N1              IC50       < 1 nM
 4  Cc1n[nH]c2c1N=C(c1c(F)cccc1F)Nc1c-2cc(N2CCO[C@@H](C(C)(C)O)C2)nc1C (single isomer, unassigned)              IC50       < 1 nM
 5  Cc1n[nH]c2c1N=C(c1c(F)cccc1F)Nc1c-2cc(N2CCOC3(COC3)C2)nc1C              IC50       < 1 nM
 6  Cc1n[nH]c2c1N=C(c1c(F)cccc1F)Nc1cnc(N3CCCOCC3)cc1-2              IC50  1 to 100 nM
 7  Cc1n[nH]c2c1N=C(c1c(F)cccc1F)Nc1c-2cc(N2CCN(CCCF)CC2)nc1C              IC50       < 1 nM
 8  Cc1n[nH]c2c1N=C(c1c(F)cccc1F)Nc1cnc(N3CCNC4(COC4)C3)cc1-2              IC50       < 1 nM
 9  Cc1n[nH]c2c1N=C(c1c(F)cccc1F)Nc1c-2cc(N2CCN(S(C)(=O)=O)CC2)nc1C              IC50       < 1 nM
10  Cc1n[nH]c2c1N=C(c1c(F)cccc1F)Nc1cnc(N3CCNCC3)cc1-2              IC50  1 to 100 nM
11  [2H]C1([2H])OC([2H])([2H])C([2H])([2H])N(c2cc3c(cn2)NC(c2c(F)cccc2F)=Nc2c(C)n[nH]c2-3)C1([2H])[2H]              IC50       < 1 nM
12  Cc1n[nH]c2c1N=C(c1c(F)cccc1F)Nc1cnc(N3CCO[C@]4(CCOC4)C3)cc1-2 (single isomer, unassigned)              IC50       < 1 nM
13  OCc1ccc(F)c(C2=Nc3c(Cl)n[nH]c3-c3cc(N4CCOCC4)ncc3N2)c1F              IC50       < 1 nM
14  Cc1nc(N2CC3(COC3)C2)cc2c1NC(c1c(F)cccc1F)=Nc1cn[nH]c1-2              IC50  1 to 100 nM
15  OCc1cc(F)c(C2=Nc3c(Cl)n[nH]c3-c3cc(N4CCOCC4)ncc3N2)c(F)c1              IC50       < 1 nM
16  Cc1n[nH]c2c1N=C(c1c(F)cccc1F)Nc1c-2cc(N2CCC(O)CC2)nc1C              IC50       < 1 nM
17  Fc1cccc(F)c1C1=Nc2c(Cl)n[nH]c2-c2cc(N3CC4CCC(C3)O4)ncc2N1              IC50       < 1 nM
18  Cc1n[nH]c2c1N=C(c1c(F)cccc1F)Nc1cnc(N3CCC[C@](C)(C#N)C3)cc1-2 (single isomer, unassigned)              IC50       < 1 nM
19  Fc1cccc(F)c1C1=Nc2c(Cl)n[nH]c2-c2cc(N3CCOCC3)ccc2N1 (single isomer, unassigned)              IC50       < 1 nM
20  Cc1n[nH]c2c1N=C(c1c(F)cccc1F)Nc1c-2cc(N2CCS(=O)(=O)CC2)nc1C              IC50       < 1 nM
21  Fc1cccc(Cl)c1C1=Nc2c(Cl)n[nH]c2-c2cc(N3CCOCC3)ncc2N1              IC50       < 1 nM
22  Cc1n[nH]c2c1N=C(c1c(F)cccc1F)Nc1cnc(N3CCO[C@@]4(CCOC4)C3)cc1-2 (single isomer, unassigned)              IC50       < 1 nM
23  [2H]C([2H])([2H])c1n[nH]c2c1N=C(c1c(F)cccc1F)Nc1cnc(N3CCO[C@H](C)C3)cc1-2              IC50       < 1 nM
24  Cc1nc(N2CCC[C@@H](C#N)C2)cc2c1NC(c1c(F)cccc1F)=Nc1cn[nH]c1-2              IC50       < 1 nM
25  Cc1n[nH]c2c1N=C(c1c(F)cccc1F)Nc1cnc(N3CCN(CCF)CC3)cc1-2              IC50       < 1 nM
26  Fc1cccc(F)c1C1=Nc2cn[nH]c2-c2cc(N3CCOCC3)ncc2N1              IC50       < 1 nM
27  Cc1n[nH]c2c1N=C(c1c(F)cccc1F)Nc1cnc(N3CCC(C)(C#N)CC3)cc1-2              IC50  1 to 100 nM
28  [2H]C1([2H])OC([2H])([2H])C([2H])([2H])N(c2cc3c(cn2)NC(c2c(F)cccc2F)=Nc2c(Cl)n[nH]c2-3)C1([2H])[2H]              IC50       < 1 nM
29  [2H]C1([2H])OC([2H])([2H])C([2H])([2H])N(c2cc3c(cn2)NC(c2c(F)cccc2F)=Nc2cn[nH]c2-3)C1([2H])[2H]              IC50       < 1 nM

Origin of the recorded values: patent US20240228493A1
